# Tested on: SF-539
# RUN DESCRIPTION: NCI tumour cell line growth inhibition, 48 h
The source made the active and inactive calls. No stated cut-off is given here; in the data, active = GI50 up to about 1.1 µM and inactive = higher.
// allowed return values: yes (1) (active), no (0) (inactive)

For orientation, consider the following solved cases.
INSERT INTO assay_data (molecule, answer_label) VALUES
  ('CC(=O)NC(C)(C)C1CC=C(C)/C(=N\O)C1 (stereo not given)', 'no (0)'),
  ('CC[C@@H](/C=C\CCC1(C[C@@H](N)CCC=C(C)C)OCCO1)O[Si](C(C)C)(C(C)C)C(C)C', 'no (0)'),
  ('C/C(=N\N=C(N)N)c1sc(-c2nc(C)c(/C(C)=N/N=C(N)N)s2)nc1C', 'no (0)');

Query: Dear colleague, could you share the recorded outcome for CSc1n[n+]2c(s1)SCCC2 when you have a moment?
Reply: no (0)

Query: # iterate: CC[C@@]1(O)C[C@H](OC2CC(N(C)C)C(OC3CC(O)C(OC4CC(O)C(O)C(C)O4)C(C)O3)C(C)O2)c2c(cc3c(c2O)C(=O)c2c(O)ccc(O)c2C3=O)[C@H]1C(=O)OC (stereo not given in full)
Reply: yes (1)

Query: Next: CCCCCCCCCCCC(=O)N(CCCCCCCCC)CC(O)C(O)C(OC1OC(CO)C(O)C(O)C1O)C(O)CO (stereo not given)
Reply: no (0)

----------
# System: TK-10
# RUN DESCRIPTION: NCI tumour cell line growth inhibition, 48 h
Active and inactive are the calls of the source. No stated cut-off is given here; in the data, active = GI50 up to about 1.1 µM and inactive = higher.
MEASURED ENDPOINT: GI50

INSERT INTO results (molecule, tgt, result) VALUES
  ('Cn1c(-c2ccccc2)cc(-c2cccs2)c1-c1ccsc1', 'TK-10', '> 100 µM (inactive)'),
  ('Cc1cc(C)c2c(n1)S(=O)(=O)N(CCCN1CCN(c3cccc(C(F)(F)F)c3)CC1)c1c-2nn(C)c1C', 'TK-10', '> 100 µM (inactive)'),
  ('COC(=O)C(C)(C)NC(=O)C(Cc1ccccc1)Nc1ncnc2c1ncn2-c1ccc(OC)cc1 (stereo not given)', 'TK-10', '> 100 µM (inactive)'),
  ('CCCCON1C[C@H](OC(C)=O)C(OC(C)=O)[C@H](OC(C)=O)C1 (stereo not given in full)', 'TK-10', '> 100 µM (inactive)');

Next item in the queue.
Query: What does the data say about its GI50? Entry: CN(CC(=O)O)c1ccc(/C=C/c2ccnc3ccccc23)cc1
Reply: 19.7 µM (inactive)

----------
# Tested on: MDA-MB-231
# RUN DESCRIPTION: NCI tumour cell line growth inhibition, 48 h
Activity calls are given as the source filed them. Cut-off read from the data, not from the text of the source: active = GI50 up to about 1.1 µM and inactive = higher.
MEASURED ENDPOINT: GI50

Check out these entries, answers already filled in.
INSERT INTO measurements (molecule, measured_endpoint, result) VALUES
  ('CCCCON1C[C@H](OC(C)=O)C(OC(C)=O)[C@H](OC(C)=O)C1 (stereo partly drawn)', 'GI50', '> 100 µM (inactive)'),
  ('Cc1cc(S(=O)(=O)[N-]C(=C(C#N)C#N)[n+]2ccc(N(C)C)cc2)c(SCC(=O)O)cc1Cl', 'GI50', '> 100 µM (inactive)'),
  ('O=C1C(Br)=C(Br)C(=O)c2ccccc21', 'GI50', '5.19 µM (inactive)'),
  ('O=C1OCC2OC(=O)c3cc(O)c(O)c(O)c3-c3c(O)c(O)c(O)c4c3C(=O)OC(C2OC(=O)c2cc(O)c(O)c(O)c2-c2c1cc(O)c(O)c2O)C1OC(=O)c2c-4c(O)c(O)c(O)c2[C@@H]1C(O)C(O)C(O)C(O)CO (stereo partly drawn)', 'GI50', '12.7 µM (inactive)'),
  ('CC(C)=C1C(=O)c2c(Cl)sc(Cl)c2C1=O', 'GI50', '27.6 µM (inactive)'),
  ('COC(=O)[C@]1(C)CCC[C@@]2(C)[C@@H]3C[C@@H]4[C@H]5C[C@@]3(CC[C@@H]21)C[C@@]45C', 'GI50', '15.6 µM (inactive)');

Query: Look at this molecule and give its reported GI50. COc1cc(C(=O)O)ccc1OS(=O)(=O)O
Reply: > 100 µM (inactive)

Query: Then this molecule: CCOC(=O)C1(C(=O)OCC)C=C(c2ccccc2)N(C2OC(COC(C)=O)C(OC(C)=O)C(OC(C)=O)C2OC(C)=O)C1=S (stereo not drawn)
Reply: > 100 µM (inactive)

----------
# Tested on: SF-268
# RUN DESCRIPTION: NCI tumour cell line growth inhibition, 48 h
The source made the active and inactive calls. Rule as the data show it: active = GI50 up to about 1.1 µM and inactive = higher.
Response enum: 1 (active), -1 (inactive)

INSERT INTO measurements (compound, tgt, answer_label) VALUES
  ('c1ccc(C2=NOC(c3ccccc3)N2C23CC4CC(CC(C4)C2)C3)cc1 (stereo not drawn)', 'SF-268', -1);

Query: Tell me the recorded outcome of this test for COc1ccc(NC(=O)CC(=O)N2N=C(N(c3ccccc3)c3ccccc3)CC2c2ccccc2)cc1 (stereo not drawn) .
Reply: -1

Query: Lookup Oc1ccc(-c2nc3ccc(F)cc3s2)cc1
Reply: -1

Query: # repeat for Nc1n[nH]c2nc3ccc(C(F)(F)F)cc3nc12
Reply: -1

Query: Moving on to c1ccc(SCCCC(Sc2ccccc2)Sc2ccccc2)cc1
Reply: -1

Query: CNS(=O)(=O)NN(C)S(=O)(=O)c1ccc(C)cc1 , same question.
Reply: -1

Query: Field entry: CCCCCCCCCCCC(=O)N(CCCCCCCCC)CC(O)C(O)C(OC1OC(CO)C(O)C(O)C1O)C(O)CO (stereo not drawn)
Reply: -1

Query: Also need CN(C)CCCNC(=O)c1cc(NC(=O)c2cc(NC(=O)CCCn3c4ccccc4c4ccccc43)cn2C)cn1C , thanks.
Reply: -1

----------
# Tested on: LXFL 529
# RUN DESCRIPTION: NCI tumour cell line growth inhibition, 48 h
The source made the active and inactive calls. No stated cut-off is given here; in the data, active = GI50 up to about 1.1 µM and inactive = higher.
Hello, when you answer, please use one of the following outcomes: 1 (yes) (active), 0 (no) (inactive)

Use the examples below as a reference point.
INSERT INTO results (molecule, answer_label) VALUES
  ('CNS(=O)(=O)NN(C)S(=O)(=O)c1ccc(Cl)cc1', '0 (no)'),
  ('NC(Cc1ccc2oc3cc(=O)c4ccccc4c-3nc2c1)C(=O)O (stereo unspecified)', '0 (no)'),
  ('Cc1ccc(C2=C(c3ccccc3)C(Br)(c3ccccc3)C(c3ccccc3)=C2c2ccc(C)cc2)cc1', '0 (no)'),
  ('CN1CCCC2(CCCc3ccccc32)C1 (stereo unspecified)', '0 (no)');

Query: Short answer needed: outcome of this test for COc1ccc(Cc2cc(OC)c(OC)c(OC)c2)cc1 ?
Reply: 1 (yes)

Query: Also CCOc1cc(/C=C/C=C/c2ccc(N(C)C)cc2)[s+]c2ccccc12 , if possible.
Reply: 0 (no)

----------
# Test system: RPMI-8226
# RUN DESCRIPTION: NCI tumour cell line growth inhibition, 48 h
Calls of active or inactive are those of the source. No stated cut-off is given here; in the data, active = GI50 up to about 1.1 µM and inactive = higher.
Please state which outcome applies, choosing from active, inactive

These recorded examples may help you get a feel for the data.
INSERT INTO assay_data (compound, answer_label) VALUES
  ('COc1cc(CC2c3cc(OC)c(OC)cc3CCN2C)ccc1O (centres undefined)', 'inactive'),
  ('COc1cc2c3c(c1OC)Oc1ccc(cc1)CC1c4c(cc(OC)c(OC)c4Oc4ccc(cc4)CC3N(C)CC2)CCN1C (centres undefined)', 'inactive'),
  ('CC(=O)O[C@@H](C1C[C@@H](C)[C@H]2[C@@](O)(O1)[C@H](O)[C@@]1(C)C3=CC[C@H]4C(C)(C)[C@@H](OC5OCC(O)C(O)C5O)CC[C@@]45C[C@@]35CC[C@]21C)C(C)(C)O (some centres undefined)', 'inactive');

Query: Test call, this compound: O=C1CSC2(CC(/C=C/c3ccccc3)=NN2c2cccc(S(=O)(=O)O)c2)N1c1nc2ccccc2s1 (centres undefined)
Reply: inactive

Query: Please give the result for CC1CCCN(CP(=O)(c2ccccc2)c2ccccc2)C1 (centres undefined) too.
Reply: inactive

Query: What do we get for CC(=O)OCC1OC(N2C(=O)/C(=C\c3ccc(Cl)cc3)C(N)=Nc3ccccc32)C(OC(C)=O)C(OC(C)=O)C1OC(C)=O (centres undefined) ?
Reply: inactive

Query: Okay, and CCCCCC(O)(CCCCC)CCCCCCCCC1=C(O)C(=O)c2ccccc2C1=O ?
Reply: inactive

Query: Please do the same for Oc1ccc2ccccc2c1-c1nnc(CCCCCCCCc2nnc(-c3c(O)ccc4ccccc34)o2)o1 as well.
Reply: inactive

Query: And for O=NN(Cc1ccc(Cl)cc1)C(C(=O)O)c1ccccc1 (centres undefined) ?
Reply: inactive

Query: What do we get for O=C(/C=C/c1ccc(O)cc1)c1ccc(O)cc1 [4,4'-DIHYDROXYCHALCONE] ?
Reply: inactive

Query: CN(CC(=O)O)c1ccc(/C=C/c2ccnc3ccccc23)cc1 , same question.
Reply: inactive
